- ASSAY METHOD TEXT: in vitro
- RUN CONDITIONS: rat, liver microsomes, F
Recorded Fh for the following molecules

# MOLECULE, Fh / %
measured = [
    ("COC(c1ccc(F)cc1Cl)c1cnc2n1CCN(c1cn[nH]c(=O)c1Cl)C2 (stereo in doubt; 12)", 31.4),
    ("COC(c1ccc(F)cc1C(F)(F)F)c1cnc2n1CCN(c1cn[nH]c(=O)c1Cl)C2 (configuration not stated)", 42.3),
]

---

- ASSAY METHOD TEXT: in vitro
- RUN CONDITIONS: human, liver microsomes, t1/2

# MOLECULE, half-life (h)
data = [
    ("COC(c1ccc(F)cc1Cl)c1cnc2n1CCN(c1cn[nH]c(=O)c1Cl)C2 (stereo in doubt; 12)", 1.98),
]
